- measured-target: human δ receptor (Homo sapiens)
- Sequence (P41143 whole entry): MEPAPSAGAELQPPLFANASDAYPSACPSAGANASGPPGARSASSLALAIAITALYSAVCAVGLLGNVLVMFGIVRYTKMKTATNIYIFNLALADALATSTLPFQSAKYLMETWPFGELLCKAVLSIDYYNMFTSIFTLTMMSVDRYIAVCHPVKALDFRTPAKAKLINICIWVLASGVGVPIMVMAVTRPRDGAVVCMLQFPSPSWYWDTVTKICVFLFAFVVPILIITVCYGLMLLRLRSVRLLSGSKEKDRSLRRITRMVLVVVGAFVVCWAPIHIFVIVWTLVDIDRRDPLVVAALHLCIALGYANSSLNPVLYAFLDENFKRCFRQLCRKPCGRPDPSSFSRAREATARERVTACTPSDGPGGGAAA
- test-details: Opiate receptor binding, δ
assay-readout: Ki
# include the unit after the value

Below: 4 molecules and their reported Ki.
{"columns": ["molecule", "reported-result"],
 "data": [
  ["CCN(C)C(=O)C(CCN1CCC(O)(c2ccc(Cl)cc2)CC1)(c1ccccc1)c1ccccc1 [Compound 17A]", "123 nM"],
  ["O=C(N1CCCCC1)C(CCN1CCC(O)(c2ccccc2)CC1)(c1ccccc1)c1ccccc1 [Compound 17C]", "15 nM"],
  ["O=C(N1CCCC1)C(CCN1CCC(O)(c2ccc(Cl)cc2)CC1)(c1ccccc1)c1ccccc1 [Compound 17B]", "68 nM"],
  ["N#CC(CCN1CCC(C(=O)O)(c2ccccc2)CC1)(c1ccccc1)c1ccccc1", "56 nM"]
]}

Okay, next one:
If you can, please state the reported Ki value of CNC(=O)C(CCN1CCC(O)(c2ccc(Cl)cc2)CC1)(c1ccccc1)c1ccccc1.Cl [Example 18, hydrochloride] .
200 nM
